Test system: MCF7
assay.comment: Effect on HSP90 level in human MCF7 cells at 1.5 times IC50 measured after 48 hrs by western blot analysis
Format: cell-based
run.conditions: mcf7, 48 h
parameter.measured: Activity

Reference set (5 entries):
{"structure.string": "CN(C)CCNc1cc2c(cn1)cc(NC(=O)c1ccc(Cl)cc1)c(=O)n2C", "Activity": "Non-toxic"}
{"structure.string": "Cn1c(=O)c(NC(=O)c2cccc(-c3ccccc3)c2)cc2cnc(N3CCN(CCO)CC3)cc21", "Activity": "Toxic"}
{"structure.string": "CN(C)CCNc1cc2c(cn1)cc(NC(=O)c1cccc(-c3ccccc3)c1)c(=O)n2C", "Activity": "Toxic"}
{"structure.string": "CN(C)CCNc1cc2c(cn1)cc(NC(=O)c1cc3ccccc3s1)c(=O)n2C", "Activity": "Non-toxic"}
{"structure.string": "CCCNc1cc2c(cn1)cc(NC(=O)c1cccc(-c3ccccc3)c1)c(=O)n2C", "Activity": "Non-toxic"}

Report Activity for `COc1ccc(C(=O)Nc2cc3cnc(N4CCN(CCO)CC4)cc3n(C)c2=O)cc1` please.
Non-toxic

Please report the recorded Activity for `Cn1c(=O)c(NC(=O)c2cccc(-c3ccccc3)c2)cc2cnc(NCCN3CCOCC3)cc21` .
Non-toxic
